Target: NA transporter (Rattus norvegicus, UniProt Q63380)
Construct: synaptosomes are isolated fresh from rat brains; from tissue; host or cells: rat hypothalamus synaptosomes (P2 fraction)
Sequence (Q63380 1-617): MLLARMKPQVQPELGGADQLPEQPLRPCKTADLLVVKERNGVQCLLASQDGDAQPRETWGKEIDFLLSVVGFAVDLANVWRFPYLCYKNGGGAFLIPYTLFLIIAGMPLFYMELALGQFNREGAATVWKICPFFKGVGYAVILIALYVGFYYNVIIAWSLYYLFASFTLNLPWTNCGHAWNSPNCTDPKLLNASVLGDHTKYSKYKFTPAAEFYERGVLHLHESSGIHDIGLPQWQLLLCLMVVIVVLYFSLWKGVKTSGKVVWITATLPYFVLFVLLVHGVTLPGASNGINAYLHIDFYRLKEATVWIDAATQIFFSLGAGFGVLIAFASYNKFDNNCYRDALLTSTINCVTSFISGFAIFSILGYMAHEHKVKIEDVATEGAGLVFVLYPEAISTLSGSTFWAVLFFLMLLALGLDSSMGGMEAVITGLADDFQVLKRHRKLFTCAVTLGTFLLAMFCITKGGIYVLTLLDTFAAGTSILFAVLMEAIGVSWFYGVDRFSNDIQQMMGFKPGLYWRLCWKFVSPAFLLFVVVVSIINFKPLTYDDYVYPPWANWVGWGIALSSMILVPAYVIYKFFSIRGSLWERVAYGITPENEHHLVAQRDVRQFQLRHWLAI
Assay: synaptosomal noradrenaline uptake inhibition (NA uptake inhibition)
Type: biochemical
Conditions: read-out: NA Uptake Inhibition at 1 μM, 1 μM in the assay, synaptosomes from rat hypothalamus
Classification field: enter class 1 for inhibition at 1 µM values not below 90%, class 0 for values below it.

CN(C)C(c1cccc(Oc2ccccc2)c1)C1CCCCC1(O)CCc1ccccc1.Cl (stereo not shown) [Example 52, hydrochloride] | class 0
CN(C)C(c1ccccc1)C1CCCCC1(O)Cc1ccc(F)cc1.Cl (stereo not shown) [Example 25, hydrochloride] | class 1
CN(C)C(c1ccccc1)C1CCCCC1(O)c1ccc(Cl)cc1.Cl (stereo not shown) [Example 6, hydrochloride] | class 0
CN(C)C(c1ccccc1)C1CCCCC1(O)c1ccc(O)cc1.Cl (stereo not shown) [Example 20, hydrochloride] | class 0

Does inhibition at 1 µM meet or surpass 90% for CN(C)C(c1cccc(Cl)c1)C1CCCCC1(O)Cc1ccc(C(C)(C)C)cc1.Cl (stereo not shown) [Example 51, hydrochloride] ? class 0

Does inhibition at 1 µM meet or surpass 90% for CN(C)C(c1ccc(F)cc1)C1CCCCC1(O)Cc1ccccc1.Cl (stereo not shown) [Example 41, hydrochloride] ? class 1

====

Provide the recorded BTX Binding at 10 μM for the entries that follow.
System: binding site 2 of the sodium channel
Test: BTX binding, sodium channel
Settings: 10 μM, percentage inhibition, [3H]-batrachotoxin A20 α-benzoate 10 nM, rat cerebral cortex synaptosomes
Procedure: Binding Investigations in the Sodium Channel Binding Site 2 (BTX Binding) The binding site 2 of the sodium channel is the so-called batrachotoxin (BTX) binding site. [^3H]-batrachlotoxin A20 α-benzoate (10 nM in the assay) was used as ligand. […] The radioactivity that is measured in the presence of veratridine (0.3 mM in the assay) is defined as non-specific binding. […]
Give bare numbers, in %.

In the examples that follow, each entry is paired with its recorded BTX Binding at 10 μM.
CN(C)C(c1cccc(Cl)c1)C1CCCCC1(O)Cc1ccc(C(C)(C)C)cc1.Cl (centres unmarked) | 99
CN(C)C(c1ccccc1)C1CCCCC1(O)c1ccc2ccccc2c1.Cl (centres unmarked) | 94
CN(C)C(c1ccccc1)C1CCCCC1(O)c1cccc(O)c1.Cl (centres unmarked) | 70
CN(C)C(c1ccccc1)C1CC(c2ccccc2)CCC1(O)Cc1ccccc1.Cl (centres unmarked) | 99

Give one value of BTX Binding at 10 μM per listed compound.
1. COc1cccc(C2(O)CCCCC2C(c2ccccc2)N(C)C)c1.Cl (centres unmarked)
2. COc1ccc(CC2(O)CCCCC2C(c2ccccc2)N(C)C)cc1.Cl (centres unmarked)
3. CN(C)C(c1ccc(Cl)c(Cl)c1)C1CCCCC1(O)Cc1ccccc1.Cl (centres unmarked)
4. CN(C)C(c1ccccc1)C1CCCCC1(O)Cc1ccc(F)cc1F.Cl (centres unmarked)
5. CN(C)C(c1cccc(Oc2ccccc2)c1)C1CCCCC1(O)CCc1ccccc1.Cl (centres unmarked)

[77, 90, 97, 95, 99]

Give one value of BTX Binding at 10 μM per listed compound.
1. CN(C)C(c1ccccc1)C1CCCCC1(O)c1ccc(Cl)c(Cl)c1 (centres unmarked)
2. CCC(O)(Cc1ccc(C(C)(C)C)cc1)C(C)C(c1ccccc1)N(C)C.Cl (centres unmarked)
3. CN(C)C(c1cccc(Oc2ccccc2)c1)C1CCCCC1(O)Cc1ccc(C(C)(C)C)cc1.Cl (centres unmarked)
4. CN(C)C(c1ccccc1)C1CCCCC1(O)Cc1cccc(C(F)(F)F)c1.Cl (centres unmarked)

[97, 100, 100, 98]

Give one value of BTX Binding at 10 μM per listed compound.
1. CN(C)C(c1cccc(Cl)c1)C1CCCCC1(O)c1ccccc1.Cl (centres unmarked)
2. CN(C)C(c1ccc(Cl)cc1)C1CCCCC1(O)Cc1ccccc1.Cl (centres unmarked)
3. COc1ccc(C2(O)CCCCC2C(c2ccccc2)N(C)C)cc1.Cl (centres unmarked)
4. CSc1ccccc1C1(O)CCCCC1C(c1ccccc1)N(C)C.Cl (centres unmarked)

1. 89
2. 100
3. 97
4. 93

====

Test system: benzothiazepine binding site of the L-type calcium channel
Assay: Diltiazem binding, L calcium channel
Design: species or system rat
Details: 10 μM, percentage inhibition, [3H]-cis-(+)-diltiazem 5 nM, rat cerebral cortex membranes
Classification field: enter criterion met for Diltiazem Binding at 10 μM values not below 80%, criterion not met for values below it.

Sample answers from the record:
CN(C)c1ccc(C2(O)CCCCC2C(c2ccccc2)N(C)C)cc1.Cl (centres unmarked) [Example 10] | criterion not met
CN(C)C(c1ccccc1)C1CCCCC1(O)c1cccc(O)c1.Cl (centres unmarked) [Example 4] | criterion not met
CN(C)C(c1ccccc1)C1CCCCC1(O)Cc1ccccc1Cl.Cl (centres unmarked) [Example 30] | criterion met

Does Diltiazem Binding at 10 μM meet or surpass 80% for CN(C)C(c1ccccc1)C1CCCCC1(O)CCCc1ccccc1.Cl (centres unmarked) [Example 68] ? criterion met

Does Diltiazem Binding at 10 μM meet or surpass 80% for CN(C)C(c1cccs1)C1CCCCC1(O)Cc1cccc(C(F)(F)F)c1.Cl (centres unmarked) [Example 70] ? criterion met

Does Diltiazem Binding at 10 μM meet or surpass 80% for CN(C)C(c1ccccc1)C1CCCCC1(O)Cc1ccc(Cl)cc1.Cl (centres unmarked) [Example 23] ? criterion met

Does Diltiazem Binding at 10 μM meet or surpass 80% for CN(C)C(c1ccccc1)C1CCCCC1(O)c1ccc(O)cc1.Cl (centres unmarked) [Example 20] ? criterion not met

Does Diltiazem Binding at 10 μM meet or surpass 80% for CN(C)C(c1ccccc1)C1CCCCC1(O)Cc1c(F)cccc1Cl.Cl (centres unmarked) [Example 56] ? criterion met

====

System: binding site 2 of the sodium channel
Experiment: BTX binding, sodium channel
Conditions: 10 μM, percentage inhibition, [3H]-batrachotoxin A20 α-benzoate 10 nM, rat cerebral cortex synaptosomes
assayEndpoint: BTX Binding at 10 μM (%)
Give bare numbers, in %.

In the examples that follow, each entry is paired with its recorded BTX Binding at 10 μM.
CN(C)C(c1ccc2ccccc2c1)C1CCCCC1(O)Cc1ccccc1.Cl (stereo not shown) | 90
CN(C)C(c1ccccc1)C1CCCCC1(O)Cc1ccc(F)cc1.Cl (stereo not shown) | 91
CN(C)c1ccc(C2(O)CCCCC2C(c2ccccc2)N(C)C)cc1.Cl (stereo not shown) | 88

Give one value of BTX Binding at 10 μM per listed compound.
1. COc1cccc(C(c2ccccc2)(C2CCCCC2(O)Cc2ccccc2)N(C)C)c1.Cl (stereo not shown)
2. CN(C)C(c1ccccc1)C1CCCCC1(O)Cc1cccc(F)c1.Cl (stereo not shown)
3. COc1cccc(C(C2CCCCC2(O)c2cccc(Cl)c2)N(C)C)c1.Cl (stereo not shown)
4. CN(C)C(c1ccccc1)C1CCCCC1(O)Cc1ccccc1.Cl (stereo not shown)

1: 92; 2: 88; 3: 89; 4: 89

====

Test system: benzothiazepine binding site of the L-type calcium channel
Experiment: Diltiazem binding, L calcium channel
Design: species or system rat
Details: 10 μM, percentage inhibition, [3H]-cis-(+)-diltiazem 5 nM, rat cerebral cortex membranes
Classification field: enter Fulfilled for Diltiazem Binding at 10 μM values not below 80%, Not fulfilled for values below it.

Does Diltiazem Binding at 10 μM meet or surpass 80% for Cc1ccc(C2(O)CCCCC2C(c2ccccc2)N(C)C)cc1.Cl (stereo not drawn) ? Not fulfilled

Does Diltiazem Binding at 10 μM meet or surpass 80% for CN(C)C(c1ccccc1)C1CCCCC1(O)Cc1ccc(Cl)cc1Cl.Cl (stereo not drawn) ? Fulfilled

Does Diltiazem Binding at 10 μM meet or surpass 80% for CN(C)C(c1cccs1)C1CCCCC1(O)Cc1ccc(C(C)(C)C)cc1.Cl (stereo not drawn) ? Fulfilled

Does Diltiazem Binding at 10 μM meet or surpass 80% for CN(C)C(c1ccccc1)C1CCCCC1(O)Cc1cccc(Cl)c1.Cl (stereo not drawn) ? Fulfilled

====

Target: NA transporter (Rattus norvegicus, UniProt Q63380)
Construct: synaptosomes are isolated fresh from rat brains; from tissue; host or cells: rat hypothalamus synaptosomes (P2 fraction)
Assay: synaptosomal noradrenaline uptake inhibition (NA uptake inhibition)
Assay type: biochemical
Conditions: read-out: NA Uptake Inhibition at 1 μM, 1 μM in the assay, synaptosomes from rat hypothalamus
Classification field: enter yes (1) for inhibition at 1 µM values not below 80%, no (0) for values below it.

Sample answers from the record:
COC(=O)c1ccc(C2(O)CCCCC2C(c2ccccc2)N(C)C)cc1.Cl (stereo not shown) [Example 71, hydrochloride] | yes (1)
CN(C)C(c1ccccc1)(c1cccc(Oc2ccccc2)c1)C1CCCCC1(O)Cc1ccccc1.Cl (stereo not shown) [Example 34, hydrochloride] | yes (1)

Does inhibition at 1 µM meet or surpass 80% for COc1cccc(C(c2ccccc2)(C2CCCCC2(O)Cc2ccccc2)N(C)C)c1.Cl (stereo not shown) [Example 35, hydrochloride] ? yes (1)

Does inhibition at 1 µM meet or surpass 80% for CN(C)C(c1ccccc1Cl)C1CCCCC1(O)c1ccc2ccccc2c1.Cl (stereo not shown) [Example 38, hydrochloride] ? no (0)
